Biological target: human cathepsin F (Homo sapiens, UniProt Q9UBX1)
Sequence (Q9UBX1 271-484): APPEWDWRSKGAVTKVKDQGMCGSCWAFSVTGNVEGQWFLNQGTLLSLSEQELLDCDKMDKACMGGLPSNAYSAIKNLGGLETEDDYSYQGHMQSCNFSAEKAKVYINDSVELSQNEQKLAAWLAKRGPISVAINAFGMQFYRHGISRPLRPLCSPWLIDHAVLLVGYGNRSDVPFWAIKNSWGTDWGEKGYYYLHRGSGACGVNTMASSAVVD
Test: Cathepsin F assay (hCat F)
Assay type: biochemical
Conditions: Z-Phe-Arg-AMC substrate, pH 5.5, 15 min preincubation; read-out: hCat F (IP (nM))
compounds and their reported IC50

COMPOUND	IC50
CS(=O)(=O)C1CN(c2ccc(-c3sc(-c4cncc(F)c4)nc3[C@@H]3CCCC[C@H]3C(=O)NC3(C#N)CC3)cc2)C1	867 nM
COc1cnc(-c2nc([C@@H]3CCCC[C@H]3C(=O)NC3(C#N)CC3)c(-c3ccc(N4CCS(=O)(=O)CC4)cc3)s2)c(F)c1	7910 nM
N#CC1(NC(=O)[C@@H]2CC3CC3C[C@H]2c2nc(-c3cncc(Cl)c3)sc2-c2ccc(N3CCS(=O)(=O)CC3)cc2)CC1 (single isomer, unassigned) [Example 113]	482 nM
Cc1ccc(-c2nc([C@@H]3CC[C@H](F)C[C@H]3C(=O)NC3(C#N)CC3)c(-c3ccc(N4CCC(C)(O)CC4)cc3)s2)nn1	2050 nM
CS(=O)(=O)c1ccc(-c2oc(-c3ccccc3)nc2C2CCC(F)(F)CC2C(=O)NCC#N)cc1 (racemic)	49 nM
CNC(=O)N1CC(c2ccc(-c3sc(-c4ccc(F)cc4)nc3[C@@H]3CCCC[C@H]3C(=O)NC3(C#N)CC3)cc2)C1	134 nM
N#CC1(NC(=O)[C@@H]2CCCC[C@H]2c2nc(C3CC(F)(F)C3)sc2-c2ccc(N3CCS(=O)(=O)CC3)cc2)CC1	1000 nM
Cc1nc([C@@H]2CC[C@H](F)C[C@H]2C(=O)NC2(C#N)CC2)c(-c2ccc(N3CCC(S(C)(=O)=O)CC3)cc2)s1	8430 nM
Cc1nc([C@@H]2CC[C@H](F)C[C@H]2C(=O)NC2(C#N)CC2)c(-c2ccc(N3CCS(=O)(=O)CC3)cc2)s1	≥ 10000 nM
N#CC1(NC(=O)[C@@H]2C[C@@H](F)CC[C@H]2c2nc(N3CCOCC3)sc2-c2ccc(N3CCS(=O)(=O)CC3)cc2)CC1	1000 nM
CC(C)(C)c1nc([C@@H]2CC[C@H](F)C[C@H]2C(=O)NC2(C#N)CC2)c(-c2ccc(N3CCS(=O)(=O)CC3)cc2)s1	9260 nM
N#CC1(NC(=O)[C@@H]2CCCC[C@H]2c2nc(-c3ccc(F)cc3)sc2-c2ccc(N3CCS(=N)(=O)CC3)cc2)CC1	3330 nM
Cc1nccc(-c2nc([C@@H]3CCCC[C@H]3C(=O)NC3(C#N)CC3)c(-c3ccc(N4CCS(=O)(=O)CC4)cc3)s2)n1	1200 nM
Cc1nc([C@@H]2CC[C@H](F)C[C@H]2C(=O)N[C@@H](C)C#N)c(-c2ccc(N3CCOCC3)cc2)s1	3330 nM
C[C@@H](C#N)NC(=O)[C@@H]1C[C@@H](F)CC[C@H]1c1nc(C2(C(F)(F)F)CC2)sc1-c1ccc(N2CCS(=O)(=O)CC2)cc1	3140 nM

* * *

Target: human cathepsin F (Homo sapiens, UniProt Q9UBX1)
Assay: Cathepsin F assay (hCat F)
Assay type: biochemical
Settings: Z-Phe-Arg-AMC substrate, pH 5.5, 15 min preincubation; read-out: hCat F (IP (nM))
Method: Cathepsin F assay (hCat F) Serial dilutions (1/3) from 500 μM down to 0.025 μM of test compounds were prepared in dimethyl sulfoxide (DMSO). Then 0.5 μL of DMSO from each dilution were added to 18.75 μL of assay buffer (MES, 50 mM (pH 5.5); EDTA, 2.5 mM; DTT, 2.5 mM and 10% DMSO) containing human cathepsin F (10 nM) in assay buffer solution. […] Percent of inhibition were calculated by fitting experimental values to standard mathematical model for dose response curve.

COMPOUND	IC50
N#CC1(NC(=O)[C@@H]2CCCC[C@H]2c2nc(-c3ncc(F)cn3)sc2-c2ccc(N3CCS(=O)(=O)CC3)cc2)CC1	≥ 10000 nM
N#CC1(NC(=O)[C@@H]2CCCC[C@H]2c2nc(C3CCOCC3)sc2-c2ccc(N3CCS(=O)(=O)CC3)cc2)CC1	≥ 10000 nM
CC(C)[C@@H](C#N)NC(=O)[C@@H]1C[C@@H](F)CC[C@H]1c1nc(C(C)(C)C)oc1-c1ccc(N2CCS(=N)(=O)CC2)cc1	≥ 10000 nM
Cc1nc(C2CCCCC2C(=O)NCC#N)c(-c2ccc(C(=O)N3CCOCC3)cc2)s1 (racemic)	> 10000 nM
CN(CC(F)(F)F)c1nc([C@@H]2CCCC[C@H]2C(=O)NC2(C#N)CC2)c(-c2ccc(N3CCS(=O)(=O)CC3)cc2)s1	≥ 10000 nM
COc1cnc(-c2nc([C@@H]3CCCC[C@H]3C(=O)NC3(C#N)CC3)c(-c3ccc(N4CCS(=O)(=O)CC4)cc3)s2)c(OC)c1	≥ 10000 nM
CC(C)[C@@H](C#N)NC(=O)[C@@H]1C[C@@H](F)CC[C@H]1c1nc(C2CC(F)(F)C2)sc1-c1ccc(N2CCS(=O)(=O)CC2)cc1	≥ 10000 nM

* * *

biological target: human cathepsin F (Homo sapiens, UniProt Q9UBX1); test: Cathepsin F assay (hCat F); assay type: biochemical; conditions: Z-Phe-Arg-AMC substrate, pH 5.5, 15 min preincubation; read-out: hCat F (IP (nM))
compounds and their reported IC50
RECORDED_ENDPOINT: IC50

COMPOUND	RECORDED_ENDPOINT	RESULT_VALUE
CC(C)(C)c1nc([C@@H]2CC[C@H](F)C[C@H]2C(=O)NC2(C#N)CC2)c(-c2ccc(N3CCS(=N)(=O)CC3)cc2)o1	IC50	≥ 10000 nM
N#CC1(NC(=O)[C@@H]2CCCC[C@H]2c2nc(-c3ccc(F)cn3)sc2-c2ccc(N3CCS(=O)(=O)CC3)cc2)COC1	IC50	289 nM
N#CC(NC(=O)[C@@H]1CCCC[C@H]1c1nc(-c2ccc(F)cn2)sc1-c1ccc(N2CCS(=O)(=O)CC2)cc1)C1CCOCC1 (single isomer, unassigned) [Example 186]	IC50	≥ 10000 nM

* * *

molecular target: UniProtKB P43236; test: Cathepsin K Assay (hrbCat K); type: biochemical; conditions: Z-Leu-Arg-AMC substrate, pH 5.5, 15 min preincubation; read-out: hrbCat K (IP (nM))

MOLECULE	IC50 [nM]
N#CC1(NC(=O)[C@@H]2CCCC[C@H]2c2nc(-c3ccc(Cl)cn3)sc2-c2ccc(N3CCS(=O)(=O)CC3)cc2)CC1 [Example 41]	1.2
N#CC1(NC(=O)[C@@H]2C[C@@H](F)CC[C@H]2c2nc(C(F)F)sc2-c2ccc(N3CCS(=O)(=O)CC3)cc2)CC1 [Example 2219]	1.8
C[C@@H](C#N)NC(=O)[C@@H]1C[C@@H](F)CC[C@H]1c1nc(CF)sc1-c1ccc(N2CCS(=O)(=O)CC2)cc1 [Example 237]	4.1
C[C@@H](C#N)NC(=O)[C@@H]1C[C@@H](F)CC[C@H]1c1nc(C(C)(C)C)sc1-c1ccc(N2CCS(=O)(=O)CC2)cc1 [Example 207]	1.6
CS(=O)(=O)c1ccc(-c2oc(-c3ccc(F)cc3)nc2C2CCC(F)(F)CC2C(=O)NCC#N)cc1 (racemic) [Example 163]	2.9
Cc1ccc(-c2nc([C@@H]3CC[C@H](F)C[C@H]3C(=O)N[C@@H](C)C#N)c(-c3ccc(N4CCS(=O)(=O)CC4)cc3)s2)nn1 [Example 195]	1.4
N#CC1(NC(=O)[C@@H]2C[C@@H](F)CC[C@H]2c2nc(C3CC(F)C3)sc2-c2ccc(N3CCS(=O)(=O)CC3)cc2)CC1 (single isomer, unassigned) [Example 235]	4.2

* * *

compounds and their reported IC50
biological target: human cathepsin K (UniProt P43236); experiment: Cathepsin K Assay (hrbCat K); format: biochemical; details: Z-Leu-Arg-AMC substrate, pH 5.5, 15 min preincubation; read-out: hrbCat K (IP (nM))

COMPOUND	UNIT_DESCRIPTOR	IC50
CC(C)(C)c1nc([C@@H]2CC[C@H](F)C[C@H]2C(=O)NC2(C#N)CC2)c(-c2ccc(N3CCS(=N)(=O)CC3)cc2)o1	nM	6
N#CC1(NC(=O)[C@@H]2CCCC[C@H]2c2nc(C3CC(F)(F)C3)sc2-c2ccc(N3CCS(=O)(=O)CC3)cc2)CC1	nM	5.8
N#CC1(NC(=O)[C@@H]2CC(F)(F)CC[C@H]2c2nc(-c3ccc(F)cc3)sc2-c2ccc(C(=O)N3CCNC(=O)C3)cc2)CC1	nM	2.2
Cc1cnc(-c2nc([C@@H]3CCCC[C@H]3C(=O)NC3(C#N)CC3)c(-c3ccc(N4CCS(=O)(=O)CC4)cc3)s2)nc1	nM	46.4
N#CC1(NC(=O)[C@@H]2CCCC[C@H]2c2nc(-c3cccc(F)c3)sc2-c2ccc(N3CCS(=O)(=O)CC3)cc2)CC1	nM	1.4
CC1CC1(C#N)NC(=O)[C@@H]1CCCC[C@H]1c1nc(-c2ccc(F)cn2)sc1-c1ccc(N2CCS(=O)(=O)CC2)cc1 (single isomer, unassigned) [Example 202]	nM	6.6
CC(C)(C)c1nc([C@@H]2CC[C@H](F)C[C@H]2C(=O)NC2(C#N)CC2)c(-c2ccc(N3CCS(=O)(=O)CC3)cc2)s1	nM	3.3
